System: HL-60(TB) leukemia
Assay: NCI-60 one-dose screen, 48 h
Settings: 10 µM unless noted
The panel holds about 83,000 compounds, 20% with a hit somewhere; the sample as a whole holds those more often. The source made the active and inactive calls. The calls were made as follows: active = growth percent below 10; inactive = the rest.
Write down the outcome that applies. Available outcomes: label 1 = active, label 0 = inactive

* COCCOc1ccc(-c2nc3ccc(-c4nc5ccc(N6CCN(C)CC6)cc5[nH]4)cc3[nH]2)cc1 | label 1
* COc1cc2c(cc1OC)-c1ccc3cc4c(cc3c1N(CCN(C)C)C2)OCO4 | label 1
* COc1cc2oc(-c3ccc(O)cc3)cc(=O)c2c(O)c1-c1c(OC)cc(O)c2c(=O)cc(-c3ccc(O)cc3)oc12 | label 1
* Nc1ccccc1-c1n[nH]c(=O)[nH]c1=O | label 0
* Cn1cc(-c2nnc(-c3cn(C)c4ncc(Br)cc34)o2)c2ccccc21 | label 0
* CCC(=O)Oc1cc(Cl)c(Cl)cc1Cl | label 0
* COc1ccc(C2CC(c3ccccc3)=NN2C(=O)c2cc(OC)c(OC)c(OC)c2)cc1O (configuration not stated) | label 1
* COc1ccc(-c2nc(Nc3cc(C)[nH]n3)c3ccccc3n2)cc1 | label 0
* Cc1ccc(-c2cc3c(SCC(=O)Nc4cc(C(F)(F)F)ccc4Cl)nccn3n2)cc1 | label 0
* Cc1cc2nc(CC(=O)c3cccc([N+](=O)[O-])c3)c(=O)[nH]c2cc1C | label 0

Tell me the recorded outcome of this test for COC1CCC(N2C(=O)CNc3ncc(-c4ccc(C(C)(C)O)nc4)nc32)CC1 (configuration not stated) .
label 0

Tell me the recorded outcome of this test for COC(=O)C1=C(C)NC(C)=C(C(=O)OC)C(N2C(=O)CCC2=O)C1 (configuration not stated) .
label 0

---

Tested on: HL-60(TB) leukemia
Experiment: NCI-60 one-dose screen, 48 h
Conditions: 10 µM unless noted
About 83,000 compounds went through this panel and 20% of them were active in at least one assay; those are over-represented in the sample as a whole. Active and inactive are the calls of the source. The calls were made as follows: active = growth percent below 10; inactive = the rest.
Write down the outcome that applies. Available outcomes: active, inactive

Would you please look over these solved cases?
• CC/C(Cc1ccccc1)=C(/c1ccc(O)cc1)c1ccc(OCCN2CCCC2)cc1 = active
• O=c1[nH]c(=O)n(C2CC(O)C(CO)O2)cc1C(F)(F)F (stereo unspecified) = active
• Cc1ccc(C)c(/C=C2\CN(C(=O)OC(C)(C)C)C/C(=C\c3cc(C)ccc3C)C2=O)c1 = inactive
• Nc1c(C(=O)Nc2cccc(Cl)c2)sc2ncc(Br)cc12 = inactive

Tell me the recorded outcome of this test for `CN1CCN(Cc2ccc(NC(=O)c3cncc(C#Cc4c(N)ncc5c(F)cccc45)c3)cc2C(F)(F)F)CC1` .
active

Tell me the recorded outcome of this test for `O=C(C(=O)c1cc(Br)ccc1O)c1cc(Br)ccc1O` .
inactive

---

Tested on: HL-60(TB) leukemia
Experiment: NCI-60 one-dose screen, 48 h (100 = growth as untreated, 0 = no growth, -100 = all killed)
Settings: 10 µM unless noted
This is part of a sample that, as a whole, favours compounds with a hit. Of some 83,000 tested, about 20% had one in any assay.
experimental_readout: growth (%)
Answers are plain numbers, in %.

Before answering, review these 5 worked examples.
- CC1(C)N=C(N)N=C(N)N1c1ccc(Cl)cc1: 51.6
- COC(=O)CC/C(C)=N\Nc1ccc([N+](=O)[O-])cc1: 24.5
- CCCCCCCCCCCCCCCCCCOc1ccc(CC(=O)OCC[N+]2(C)CCCC2)cc1: 101
- COC(=O)C1CCc2sc3ncnc(Nc4cn[nH]c4C(=O)Nc4ccc(CN5CCN(C)CC5)cc4)c3c21 (stereo unspecified): -28.8
- Cc1cnc(Nc2ccc(N3CCN(C)CC3)cc2)nc1Nc1ccc(Cl)c(NS(=O)(=O)C(C)(C)C)c1: -13.4

# context switch: different compound, same growth
Query (compound): `CN(C)CCCN(c1nc(C(Cl)(Cl)Cl)ns1)c1nc(C(Cl)(Cl)Cl)ns1` ; field requested: growth
24.4

---

System: 786-0 renal
Test: NCI-60 one-dose screen, 48 h
Conditions: 10 µM unless noted
The panel holds about 83,000 compounds, 20% with a hit somewhere; the sample as a whole holds those more often. Active and inactive are the calls of the source. The calls were made as follows: active = growth percent below 10; inactive = the rest.
Write down the outcome that applies. Available outcomes: active, inactive

Tell me the recorded outcome of this test for `O=S(=O)(F)c1ncnc2nc[nH]c12` .
inactive

Tell me the recorded outcome of this test for C=CCN1C(=O)C(CC)(CCC(C)C)C(=O)NC1=S (centres undefined) .
inactive

Tell me the recorded outcome of this test for `O=C1NC(=S)NC(=O)C1=Cc1ccccc1` .
inactive

Tell me the recorded outcome of this test for `CC1(C)CC(=O)CC(C)(C)N1N=O` .
inactive

Tell me the recorded outcome of this test for CCC(CC)(c1ccccc1)C(OC(N)=O)c1ccccc1 (centres undefined) .
inactive

Tell me the recorded outcome of this test for COc1cc(C2=NN(c3ccccc3)C(c3sc(N(CCCl)CCCl)nc3Cl)C2)cc(OC)c1OC (centres undefined) .
inactive

Tell me the recorded outcome of this test for `Nc1nc(N)c(-c2ccc(Cl)c(Cl)c2)c(/C=C/c2ccc(S(=O)(=O)F)cc2)n1` .
inactive

Tell me the recorded outcome of this test for `n1nc(-c2nonc2-c2nn[nH]n2)n[nH]1` .
inactive

Tell me the recorded outcome of this test for O=CN1N=C(c2ccccc2)CC1c1sc(N(CCCl)CCCl)nc1Cl (centres undefined) .
inactive

Tell me the recorded outcome of this test for `Cc1cc(C)nc(C)c1.[Cl][Hg][Cl]` .
inactive

Tell me the recorded outcome of this test for `CNC(=O)Oc1cccc(N(C)C)c1` .
inactive

Tell me the recorded outcome of this test for COc1cccc2c1C(=O)c1c(O)c3c(c(O)c1C2=O)CC(O)(/C(C)=N/NC(=O)CCC(=O)N/N=C(\C)C1(O)Cc2c(O)c4c(c(O)c2C(OC2CC(N)C(O)C(C)O2)C1)C(=O)c1c(OC)cccc1C4=O)CC3OC1CC(N)C(O)C(C)O1 (centres undefined) .
active

Tell me the recorded outcome of this test for CSc1ccccc1NP1(=O)OCC(C)([N+](=O)[O-])CO1 (centres undefined) .
inactive

Tell me the recorded outcome of this test for `O=C1c2ccccc2C(=O)N1[N+](=O)[O-]` .
inactive

Tell me the recorded outcome of this test for `NC(=O)NC(=O)CI` .
inactive

Tell me the recorded outcome of this test for CC(C)(C)NCC(O)c1ccccc1Cl (centres undefined) .
inactive

Tell me the recorded outcome of this test for `Nc1cccc2c1Oc1ccccc1O2` .
inactive

Tell me the recorded outcome of this test for CC12CCC(=O)C=C1C(O)CC1C2CCC2(C)C(O)CCC12 (centres undefined) .
inactive

Tell me the recorded outcome of this test for CC(C)(C)[Si](C)(C)OC1[C@@H](O[Si](C)(C)C(C)(C)C)[C@@H](CNC(=O)NC(=O)CF)O[C@H]1n1cnc2c(NC(=O)Nc3ccccc3)ncnc21 (some centres undefined) .
inactive

Tell me the recorded outcome of this test for `CC(=O)Nc1ccc(Cc2ccc(NC(C)=O)cc2)cc1` .
inactive

Tell me the recorded outcome of this test for `CC1(C)N=C(N)N=C(N)N1c1ccc(OCCCCOc2ccc(S(=O)(=O)F)cc2)c(Cl)c1` .
inactive

---

System: HL-60(TB) leukemia
Test: NCI-60 one-dose screen, 48 h
Conditions: 10 µM unless noted
Compounds without any hit were thinned out: in the full panel of roughly 83,000, 20% have a hit. Active and inactive are the calls of the source. The calls were made as follows: active = growth percent below 10; inactive = the rest.
Write down the outcome that applies. Available outcomes: active, inactive

Would you please look over these solved cases?
• O=C(O)CCC/C=C\C[C@H]1C=CC(=O)/C1=C/C[C@@H](O)CCc1cccc(C(F)(F)F)c1 = active
• COc1ccc(-n2nnc3c(sc4ccccc43)c2=O)cc1 = inactive
• COc1ccc(-c2csc(NC(=O)CSc3nc(C)c(-c4ccccc4)n3Nc3ccccc3)n2)cc1 = inactive
• O=C(Nc1ccc(C2=NCCCN2)cc1)c1ccc(C(=O)Nc2ccc(C3=NCCCN3)cc2)nc1 = inactive
• C=C(C)[C@@H]1CC[C@]2(C(N)=O)CC[C@]3(C)[C@H](CC[C@@H]4[C@@]5(C)CC[C@H](O)C(C)(C)[C@@H]5CC[C@]43C)[C@@H]12 = active
• O=C1Nc2ccc(Cl)cc2/C1=C/c1ccc[nH]1 = inactive

Next up:
Tell me the recorded outcome of this test for CC(=O)n1c(-c2ccc(Cl)cc2)nc2c(c1=O)C(c1ccc(Cl)cc1)c1sc3c(Cl)cccc3c1O2 (configuration not stated) .
active

---

Test system: HL-60(TB) leukemia
Assay: NCI-60 one-dose screen, 48 h (100 = growth as untreated, 0 = no growth, -100 = all killed)
Details: 10 µM unless noted
This is part of a sample that, as a whole, favours compounds with a hit. Of some 83,000 tested, about 20% had one in any assay.
experimental_readout: growth (%)
Numbers only, in %.

Before answering, review these 3 worked examples.
- COc1cccc(OCC(O)CN2CCN(c3ccccc3)CC2)c1 (stereo not given): 78.7
- O=CN1N=C(c2ccc3c(c2)OCO3)CC1c1sc(N(CCCl)CCCl)nc1Cl (stereo not given): 88.6
- CC/C(=C\c1ccc(OC)cc1)C(=O)c1ccc(OC)cc1: 131

For the 3 molecules below, give their growth values.
1. CNc1nc2ncn(C)c2c(=O)[nH]1
2. COc1cc([N+](=O)[O-])c2ncccc2c1O
3. CC(=O)c1cc2c(N)c(C(=O)Nc3cccc(F)c3C)sc2nc1C

1. 91.5
2. 72.1
3. 57.1
